Target: T1, Human T cell receptor on human primary T cells (human, UniProt P01848 1-140; P01850 1-176); note: test concentration or dose not given here
T1 TCR alpha (looked up): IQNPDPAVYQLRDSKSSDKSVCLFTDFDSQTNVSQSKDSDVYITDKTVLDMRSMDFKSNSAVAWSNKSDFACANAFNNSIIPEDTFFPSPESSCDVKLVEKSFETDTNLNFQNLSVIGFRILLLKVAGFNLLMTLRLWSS
T1 TCR beta (looked up): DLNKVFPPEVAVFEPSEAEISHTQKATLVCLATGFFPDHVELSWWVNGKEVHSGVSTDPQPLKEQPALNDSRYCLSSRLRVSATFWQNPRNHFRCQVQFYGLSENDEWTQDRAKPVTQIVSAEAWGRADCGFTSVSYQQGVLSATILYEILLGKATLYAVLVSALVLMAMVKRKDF
Assay: cell-based or functional assay
Exercise: for every item that follows, state its recorded % Lysis, T cell mediated MOLM-13 cell killing, human primary T cells, E:T 10:1.
Number only, in %; omit the unit.

Prompt line: // query % Lysis, T cell mediated MOLM-13 cell killing, human primary T cells, E:T 10:1 value for entry T017000631 (bispecific antibody, also called A0110056A10(E1D)-35GS-T0170056G05(L11V, G26Y, L34Y, M77T, K83R, V89L, F91Y, F95L, R97K, Y99W)-A) DVQLVESGGGLVQAGGSLRLSCAASGITSKINDMGWYRQTPGNYREWVASITATGTTNYRDSVKGRFTISRDNAKSTVYLQMNSLKPEDTTVYYCNTFPPISNFWGQGTLVTVSSGGGGSGGGGSGGGGSGGGGSGGGGSGGGGSGGGGSEVQLVESGGGVVQPGGSLRLSCVASYDVHKINFYGWYRQAPGKEREKVAHISIGDQTDYADSAKGRFTISRDESKNTVYLQMNSLRPEDTALYYCRALSKIWPYDYWGQGTLVTVSSA
Response line: 0

Prompt line: Name the reported % Lysis, T cell mediated MOLM-13 cell killing, human primary T cells, E:T 10:1 value associated with the binder T017000636 (bispecific antibody) DVQLVESGGGVVQPGGSLRLSCVASWDVHQINFYGWYRQAPGKEREKVAHISIGDQTDYADSAKGRFTISRDESKNTVYLQMNSLRPEDTALYYCRALSRIWPYDYWGQGTLVTVSSGGGGSGGGGSGGGGSGGGGSGGGGSGGGGSGGGGSEVQLVESGGGLVQAGGSLRLSCAASGITSKINDMGWYRQTPGNYREWVASITATGTTNYRDSVKGRFTISRDNAKSTVYLQMNSLKPEDTTVYYCNTFPPISNFWGQGTLVTVSSA
Response line: 36

Prompt line: Could you share which % Lysis, T cell mediated MOLM-13 cell killing, human primary T cells, E:T 10:1 value was measured for T017000627 (bispecific antibody) DVQLVESGGGVVQPGGSLRLSCVASWDVHKINFYGWYRQAPGKEREKVAHISIGDQTDYADSAKGRFTISRDESKNTVYLQMNSLRPEDTALYYCRALSKIWPYDYWGQGTLVTVSSGGGGSGGGGSGGGGSGGGGSGGGGSGGGGSGGGGSEVQLVESGGGLVQAGGSLRLSCAASGITSKINDMGWYRQTPGNYREWVASITATGTTNYRDSVKGRFTISRDNAKSTVYLQMNSLKPEDTTVYYCNTFPPISNFWGQGTLVTVSSA ?
Response line: 36

Prompt line: Query: % Lysis, T cell mediated MOLM-13 cell killing, human primary T cells, E:T 10:1; subject: T017000131 (bispecific antibody, also called A0110056A10(E1D)-35GS-T0170056G05-A) DVQLVESGGGLVQAGGSLRLSCAASGITSKINDMGWYRQTPGNYREWVASITATGTTNYRDSVKGRFTISRDNAKSTVYLQMNSLKPEDTTVYYCNTFPPISNFWGQGTLVTVSSGGGGSGGGGSGGGGSGGGGSGGGGSGGGGSGGGGSEVQLVESGGGLVQPGGSLRLSCVASGDVHKINFLGWYRQAPGKEREKVAHISIGDQTDYADSAKGRFTISRDESKNMVYLQMNSLKPEDTAVYFCRAFSRIYPYDYWGQGTLVTVSSA
Response line: 20

Prompt line: Item T017000642 (bispecific antibody) DVQLVESGGGVVQPGGSLRLSCVASWDVHKINFYTWYRQAPGKEREKVAHISIGDQTDYADSAKGRFTISRDESKNTVYLQMNSLRPEDTALYYCRALSKIWPYDYWGQGTLVTVSSGGGGSGGGGSGGGGSGGGGSGGGGSGGGGSGGGGSEVQLVESGGGLVQAGGSLRLSCAASGITSKINDMGWYRQTPGNYREWVASITATGTTNYRDSVKGRFTISRDNAKSTVYLQMNSLKPEDTTVYYCNTFPPISNFWGQGTLVTVSSA has what recorded % Lysis, T cell mediated MOLM-13 cell killing, human primary T cells, E:T 10:1?
Response line: 32
